experimentDescription: Plasma pharmacokinetics, part 2 main QTc study
Type: in vivo, human
details: human, plasma, oral, 400 mg
parameterMeasured: Cmax (ng/mL)

[
  {
    "compound": "COc1c(N2C[C@@H]3CCCN[C@@H]3C2)c(F)cc2c(=O)c(C(=O)O)cn(C3CC3)c12 [Moxifloxacin, moxifloxacin, reference compound]",
    "observedResult": 1960
  }
]

====

experimentDescription: Plasma pharmacokinetics, part 1 sentinel cohort
Format: in vivo, human
details: human, plasma, oral, 500 mg

[
  {
    "molecule": "C=C(C)[C@@H]1CC[C@]2(NCCN3CCS(=O)(=O)CC3)CC[C@]3(C)[C@H](CC[C@@H]4[C@@]5(C)CC=C(C6=CC[C@@](CF)(C(=O)O)CC6)C(C)(C)[C@@H]5CC[C@]43C)[C@@H]12 [GSK'254]",
    "Cmax": "4440 ng/mL"
  }
]

====

experimentDescription: Plasma pharmacokinetics, part 2 main QTc study
Type: in vivo, human
details: human, plasma, oral, 100 mg

[
  {
    "molecularString": "C=C(C)[C@@H]1CC[C@]2(NCCN3CCS(=O)(=O)CC3)CC[C@]3(C)[C@H](CC[C@@H]4[C@@]5(C)CC=C(C6=CC[C@@](CF)(C(=O)O)CC6)C(C)(C)[C@@H]5CC[C@]43C)[C@@H]12",
    "AUC (ng·h/mL)": 13800
  }
]

====

experimentDescription: Plasma pharmacokinetics, part 2 main QTc study
Format: in vivo, human
details: human, plasma, oral, 400 mg

[
  {
    "compound": "COc1c(N2C[C@@H]3CCCN[C@@H]3C2)c(F)cc2c(=O)c(C(=O)O)cn(C3CC3)c12 [Moxifloxacin, moxifloxacin, reference compound]",
    "unitOfMeasure": "h",
    "Tmax": 4
  }
]

====

experimentDescription: Plasma pharmacokinetics, part 1 sentinel cohort
Format: in vivo, human
details: human, plasma, oral, 500 mg

[
  {
    "molecularString": "C=C(C)[C@@H]1CC[C@]2(NCCN3CCS(=O)(=O)CC3)CC[C@]3(C)[C@H](CC[C@@H]4[C@@]5(C)CC=C(C6=CC[C@@](CF)(C(=O)O)CC6)C(C)(C)[C@@H]5CC[C@]43C)[C@@H]12",
    "AUC": "68800 ng·h/mL"
  }
]
